System: NCI-H460
Experiment: NCI tumour cell line growth inhibition, 48 h
Active and inactive are the calls of the source. Cut-off read from the data, not from the text of the source: active = GI50 up to about 1.1 µM and inactive = higher.
Could you please report measured GI50 for the items listed next?

Give the measured GI50 of `CCCCCCCCCCCC[N+](CCCCCCCCCCCC)=C1SCCS1` .
7.28 µM (inactive)

What about COc1ccc([C@]23CCC4(OCC(C)(C)CO4)[C@H]4CON(O[C@H](O[C@@H]5CCCCC5C(C)(C)c5ccccc5)C2)[C@@H]43)cc1OC (some centres undefined) ?
79.4 µM (inactive)

Try this compound next: `COc1cc2c(/C=C3/C(=O)Nc4ccccc43)c(Cl)[nH]c2cc1C`
0.0716 µM (active)

Same read-out for `COc1cc(N(CCC#N)CCC#N)ccc1C(/N=N/c1cccc(C)c1)=N\NC(=O)c1ccc(C)cc1` ?
25.9 µM (inactive)

Next compound up: `O=C(/C=C\Nc1ccccc1O)C(F)(F)F`
67.5 µM (inactive)

Cool, now CC(NC(C#N)CC12CC3CC(CC(C3)C1)C2)c1ccccc1 (centres undefined)
26.5 µM (inactive)

Repeat with COC(=O)c1cc(C)ccc1CC(Cc1ccccc1C)C(=O)OC (centres undefined)
78 µM (inactive)

Now the same for `CC(C)NC(=O)OCc1c(COC(=O)NC(C)C)c(-c2cc[n+](COC(=O)C(C)C)cc2)n2c1CCC2`
41.6 µM (inactive)

`CC(=O)CC1(O)C(=O)c2c(Br)sc(Br)c2C1=O` , same question.
45.1 µM (inactive)

Same question for `c1ccc(C(/C(=N/c2ccc(Cc3ccc(/N=C(\C(c4ccccc4)c4ccccc4)N4CC4)cc3)cc2)N2CC2)c2ccccc2)cc1` please.
1.78 µM (inactive)

Further, for `COc1ccc2c(c1)[n+]([O-])c(-c1ccc(Br)cc1)c(N)[n+]2[O-]` ?
36.3 µM (inactive)

Now consider O=[N+]([O-])C(Cl)C(Cl)C(Cl)=C(Cl)Cl (centres undefined) and answer again.
49.1 µM (inactive)

And what about the compound `COc1ccc(OC)c2sc(N3C(=O)/C(=C/c4ccccc4S)N=C3c3ccccc3)nc12` ?
53.8 µM (inactive)

Entry to check: COc1ccc(/C=C2\CCC(CNc3ccc(S(N)(=O)=O)cc3)C2=O)cc1 (centres undefined)
31.3 µM (inactive)

---

Could you please report measured GI50 for the items listed next?
Tested on: KM-20L2
Test: NCI tumour cell line growth inhibition, 48 h
The source made the active and inactive calls. Rule as the data show it: active = GI50 up to about 1.1 µM and inactive = higher.

Give KM-20L2 GI50 for COc1ccc(C2c3cc4c(cc3OC(O)(CO)C2C(=O)O)OCO4)c(OC)c1OC.COc1ccc(C2c3cc4c(cc3OC3(O)COC(=O)C23)OCO4)c(OC)c1OC (centres undefined)
> 100 µM (inactive)

And then `CC(C)(C)c1cc(Cc2ccc([N+](C)(C)C)cc2)c(O)c(C(C)(C)C)c1` , what is it?
21.9 µM (inactive)

# repeat for CC(C(=O)N1C(=O)N(C(=O)C(C)C(O)c2ccccc2)C2CCCCC21)C(O)c1ccccc1 (centres undefined)
> 100 µM (inactive)

Follow-up item: COc1cc(C2c3cc4c(cc3[C@@H](Nc3cnc5ccccc5c3)C3COC(=O)[C@H]23)OCO4)cc(OC)c1O (some centres undefined)
1.47 µM (inactive)

Moving on to `COc1cc2c(OC)cc1CSCc1sc(C)c(c1Br)CSC2`
> 100 µM (inactive)

Quick one: `CCOC(=O)C(=O)Nc1c(C)cccc1C(C)C`
> 100 µM (inactive)

Moving on to the next molecule: `CC(=O)C1=C(C)Cn2c(=O)c3ccccc3c(=O)n2C1`
> 100 µM (inactive)

Same read-out for `CCOc1ccc(/N=C/c2cccc3cccnc23)cc1` ?
> 100 µM (inactive)

`CSc1nc(-c2ccccc2)nc(N2CCOCC2)[s+]1` ?
> 100 µM (inactive)
